Assay: Multiple-dose pharmacokinetics, plasma LNG concentrations on treatment day 55 (±1)
Type: in vivo, human
Details: female, human, plasma, po, 0.115 mg per day, 0.115 mg per day oral over 55 ± 1 consecutive days, entire treatment group; read-out: AUC0-24, ss, Mean
quantity: AUC(0-t) (ng·h/mL)
Write the number in ng·h/mL without appending the unit.

Form field AUC(0-t), entry C#C[C@]1(O)CC[C@H]2[C@@H]3CCC4=CC(=O)CC[C@@H]4[C@H]3CC[C@@]21CC (racemic) : 14.8

###

Test: Multiple-dose pharmacokinetics, plasma LNG concentrations on treatment day 55 (±1)
Type: in vivo, human
Conditions: female, human, plasma, po, 0.135 mg per day, 0.135 mg per day oral over 55 ± 1 consecutive days, entire treatment group; read-out: AUC0-24, ss, Mean
quantity: AUC(0-t) (ng·h/mL)
Write the number in ng·h/mL without appending the unit.

Form field AUC(0-t), entry C#C[C@]1(O)CC[C@H]2[C@@H]3CCC4=CC(=O)CC[C@@H]4[C@H]3CC[C@@]21CC (racemic) : 17.5
